System: Oryza sativa
Assay: Test of plant growth inhibiting action on sprouted seeds grown 7 days in a dispersion of wettable powder, visual evaluation
Assay type: in vivo
Conditions: 168 h, Concentration 20 ppm, 20% wettable powder dispersed in water, 25°C, lighted thermostat, visual grade 1-5, read-out: Growth Inhibition, Seed of Plant Oryza sativa (converted)
VALUE_KIND: inhibition at 20 ppm (%)

1) C=C(CON(CC)CC)C(=O)OC [Compound 4-26]; 0
2) C=C(COc1ccc(C(F)(F)F)cc1)C(=O)OC [Compound 4-21]; 0
3) C=C(COc1ccc(OC)cc1)C(=O)OC [Compound 4-20]; 100
4) C=C(COc1ccccc1)C(=O)OC [Compound 4-10, methyl 2-methylene-3-phenoxypropionate]; 75

Reference source for all entries: patent EP0117412A1
